Tested on: biotinyl-Phe-oxazolone
Experiment: self-aminoacylation, catalytic enhancement (BFO) (fold over background); higher = more active; k-Seq, kA / k0A0; sequences stand for … in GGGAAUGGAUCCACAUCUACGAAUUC…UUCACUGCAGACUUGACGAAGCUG
Fewer inactive variants are shown than the library holds.
Record form. Attribute: self-aminoacylation. Fill in for each entry.
Give bare numbers.

Monomer sequence | Target system | Measured result
AUUACCCUGGGAAUCGAGUGA [Fam2.1 aminoacylation ribozyme variant] | biotinyl-Phe-oxazolone | 26.8
CUACUUCAAACAAUCGCUCGG [Fam1A.1 aminoacylation ribozyme variant] | biotinyl-Phe-oxazolone | 0.822
AAGUCUGCUAAUAGUCGCAGG [Fam3.1 aminoacylation ribozyme variant] | biotinyl-Phe-oxazolone | 5.31
AAUACCCUGGUCAUCGAAUGA [Fam2.1 aminoacylation ribozyme variant] | biotinyl-Phe-oxazolone | 0.529
CCACACUUCAAGCAAGUGGUC [Fam1B.1 aminoacylation ribozyme variant] | biotinyl-Phe-oxazolone | 0.777

Fill in self-aminoacylation for each of the 3 sequences listed.
1. AUUCACCUAGGUGACCGGGUG [Fam2.2 aminoacylation ribozyme variant]
2. AAGUUUGCAAAUAGUCGCAAA [Fam3.1 aminoacylation ribozyme variant]
3. AUUCACCUAGGUCAUGGGAUG [Fam2.2 aminoacylation ribozyme variant]

1. 23
2. 0.845
3. 0.397

Give the reported value of self-aminoacylation for this record: AUUCACCAAGGUCAUCGUGUG [Fam2.2 aminoacylation ribozyme variant]
8.03
